Reported values of pKi for individual entries
# target.of.assay: hMC1-R (Homo sapiens)
# Sequence (Q01726 whole entry): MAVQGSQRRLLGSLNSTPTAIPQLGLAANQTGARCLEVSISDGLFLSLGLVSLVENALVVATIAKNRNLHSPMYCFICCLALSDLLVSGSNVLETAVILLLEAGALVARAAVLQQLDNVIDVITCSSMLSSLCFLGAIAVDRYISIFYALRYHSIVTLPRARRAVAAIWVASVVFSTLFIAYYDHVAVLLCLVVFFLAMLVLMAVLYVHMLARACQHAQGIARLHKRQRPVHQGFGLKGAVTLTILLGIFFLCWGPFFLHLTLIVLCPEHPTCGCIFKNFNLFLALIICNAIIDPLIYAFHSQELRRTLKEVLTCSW
# experimental.protocol: Radioligand binding assay, hMC1-R
# Set-up: expressed in transfected cells; host or cells: CHO-K1
Where a SMILES comes first, the peptide text is derived from it. Bridges are numbered along the chain shown (N, C = ends). [ ]: non-standard residue; d: D form.
Note on units: pKi is unitless, being -log10 of a concentration expressed in mol/L.

CC(=O)N[C@@H](Cc1c[nH]c2ccccc12)C(=O)N[C@@H](CCCNC(=N)N)C(=O)N[C@H]1CSSC[C@@H](C(N)=O)NC(=O)[C@H](Cc2c[nH]c3ccccc23)NC(=O)[C@H](CCCNC(=N)N)NC(=O)[C@@H](Cc2ccccc2)NC(=O)[C@H](Cc2c[nH]cn2)NC(=O)[C@@H](C)NC1=O (Ac-WRC[dA]H[dF]RWC-NH2; disulfide 3-9) ... 8.33
CC(=O)N[C@@H](Cc1c(F)c(F)c(F)c(F)c1F)C(=O)N[C@@H](CCCNC(=N)N)C(=O)N[C@H]1CSSC[C@@H](C(N)=O)NC(=O)[C@H](Cc2c[nH]c3ccccc23)NC(=O)[C@H](CCCNC(=N)N)NC(=O)[C@@H](Cc2ccccc2)NC(=O)[C@H](Cc2c[nH]cn2)NC(=O)[C@@H](C)NC1=O ... 9.49
CC(=O)N[C@@H](Cc1ccc2ccccc2c1)C(=O)N[C@@H](CCCNC(=N)N)C(=O)N[C@H]1CSSC[C@@H](C(N)=O)NC(=O)[C@H](Cc2c[nH]c3ccccc23)NC(=O)[C@H](CCCNC(=N)N)NC(=O)[C@@H](Cc2ccccc2)NC(=O)[C@H](Cc2c[nH]cn2)NC(=O)[C@@H](C)NC1=O ... 8.22
CC(=O)N[C@@H](Cc1ccccc1)C(=O)N[C@@H](CCCNC(=N)N)C(=O)N[C@H]1CSSC[C@@H](C(N)=O)NC(=O)[C@H](Cc2c[nH]c3ccccc23)NC(=O)[C@H](CCCNC(=N)N)NC(=O)[C@@H](Cc2ccccc2)NC(=O)[C@H](Cc2c[nH]cn2)NC(=O)[C@@H](C)NC1=O (Ac-FRC[dA]H[dF]RWC-NH2; disulfide 3-9) ... 8.83

Now for the compound whose pKi we want.
According to the records, this compound CC(=O)N[C@@H](Cc1cccc2ccccc12)C(=O)N[C@@H](CCCNC(=N)N)C(=O)N[C@H]1CSSC[C@@H](C(N)=O)NC(=O)[C@H](Cc2c[nH]c3ccccc23)NC(=O)[C@H](CCCNC(=N)N)NC(=O)[C@@H](Cc2ccccc2)NC(=O)[C@H](Cc2c[nH]cn2)NC(=O)[C@@H](C)NC1=O displays pKi of 8.20

###

# target.of.assay: human melanocortin 3 receptor (human) (UniProt P41968)
# Sequence (P41968 whole entry): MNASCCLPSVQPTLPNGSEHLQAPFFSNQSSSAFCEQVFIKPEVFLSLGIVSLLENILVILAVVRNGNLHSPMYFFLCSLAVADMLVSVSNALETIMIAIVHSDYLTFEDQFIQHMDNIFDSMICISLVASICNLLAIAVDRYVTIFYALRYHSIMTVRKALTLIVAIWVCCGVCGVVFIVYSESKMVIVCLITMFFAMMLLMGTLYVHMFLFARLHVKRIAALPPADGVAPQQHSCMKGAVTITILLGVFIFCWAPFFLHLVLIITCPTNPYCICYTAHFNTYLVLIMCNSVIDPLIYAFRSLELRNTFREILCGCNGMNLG
# experimental.protocol: cell-based or functional assay
metric: EC50, cAMP bioassay (ECL) in CHO-K1 cells expressing hMC3-R (nM)
Just the number please, in nM, no unit attached.

Ac-2-Nal-Arg-c(Cys-D-Ala-His-D-Phe-Arg-Trp-Cys)-NH2 (peptide) ... 6.11
Ac-Trp-Arg-c(Cys-D-Ala-His-D-Phe-Arg-Trp-Cys)-NH2 (peptide) ... 3.95
Ac-1-Nal-Arg-c(Cys-D-Ala-His-D-Phe-Arg-Trp-Cys)-NH2 (peptide) ... 4.21

Could you now look at the following substance, please?
So for Ac-Tyr-Arg-c(Cys-D-Ala-His-D-Phe-Arg-Trp-Cys)-NH2 (peptide) , the logged EC50, cAMP bioassay (ECL) in CHO-K1 cells expressing hMC3-R turned out to be 2.39
